# assay info: Plasma clearance in dog at 1 and 3 mg/kg
# Assay type: ADME, organism-based, Canis lupus familiaris
# Parameters: dose 3 mg/kg
readout: clearance (mL/min/kg)

> print(dat)
                                   molecule    readout  meas.value
1  CC(C)(C)c1c(C(=O)NC2C3CC4CC(C3)CC2C4)cnn1-c1ccc(C(=O)O)cc1 (stereo unspecified)  clearance         0.3

----------
Reported logD values for the following compounds.
# assay info: Lipophilicity, log D at pH 7.4 by shake flask method
# measurement conditions: buffer
readout: logD

> print(dat)
                                    compound  inequality.symbol  meas.value
 1              CCCSc1c(C(=O)NC2CCCCC2)cnn1C                  =           3
 2  CCCSc1c(C(=O)N[C@H]2C3CC4CC2C[C@](OC)(C4)C3)cnn1-c1ccc(C(=O)O)cc1                  <         0.5
 3  O=C(O)c1ccc(-n2ncc(C(=O)NC3C4CC5CC(C4)CC3C5)c2C2CC2)cc1 (stereo not given)                  =         0.9
 4  CCCSc1c(C(=O)N(C)C2CCCCC2)cnn1-c1ccc(C(=O)O)cc1                  =         0.6
 5  CCCSc1c(C(=O)NC2CCCCC2)cnn1[C@H]1CC[C@@H](C(=O)O)CC1                  =         1.4
 6                CCCSc1ncccc1C(=O)NC1CCCCC1                  =         3.2
 7  CC(C)c1c(C(=O)NC2C3CC4CC(C3)CC2C4)cnn1-c1ccc(C(=O)O)cc1 (stereo not given)                  =         1.2
 8  CC1(c2c(C(=O)NC3C4CC5CC(C4)CC3C5)cnn2-c2ccc(C(=O)O)cc2)CC1 (stereo not given)                  =         1.1
 9  O=C(O)c1ccc(-n2ncc(C(=O)NC3C4CC5CC(C4)CC3C5)c2SC2CCCC2)cc1 (stereo not given)                  =         2.6
10  CCCSc1c(C(=O)NC2CCCCC2)cnn1-c1cccc(C(=O)O)c1                  =         0.7

----------
# target system: 11-beta-hydroxysteroid dehydrogenase 1 (Homo sapiens, UniProt P28845)
# Sequence (P28845 whole entry): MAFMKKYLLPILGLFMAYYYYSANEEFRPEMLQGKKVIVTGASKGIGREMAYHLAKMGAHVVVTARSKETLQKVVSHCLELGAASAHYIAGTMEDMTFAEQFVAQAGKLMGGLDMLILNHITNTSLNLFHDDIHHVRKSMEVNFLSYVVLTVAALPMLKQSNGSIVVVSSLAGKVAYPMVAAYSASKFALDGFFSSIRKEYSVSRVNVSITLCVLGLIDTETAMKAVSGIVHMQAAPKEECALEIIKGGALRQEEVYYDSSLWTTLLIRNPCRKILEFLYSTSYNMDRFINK
# assay info: Inhibition of 11betaHSD1 in human adipocytes assessed as cortisone to cortisol conversion by scintillation counting method
# Type: cell-based
pIC50: −log10 of the molar value.
readout: pIC50

> print(dat)
                                   compound                             target.system  meas.value
1  CC(C)(C)c1c(C(=O)NC2C3CC4CC(C3)CC2C4)cnn1-c1ccc(C(=O)O)cc1 (stereo unspecified)  11-beta-hydroxysteroid dehydrogenase 1 (Homo sapiens, UniProt P28845)        8.70

----------
# assay info: Half life in mouse at 1 and 3 mg/kg, po
# Format: ADME, organism-based
# Parameters: dose 3 mg/kg, route oral
# measurement conditions: in vivo
readout: half-life (h)

> print(dat)
                                   molecule  meas.value
1  CC(C)(C)c1c(C(=O)NC2C3CC4CC(C3)CC2C4)cnn1-c1ccc(C(=O)O)cc1 (stereo unspecified)         2.2

----------
# assay info: Oral bioavailability in rat
# Type: ADME, organism-based
# measurement conditions: in vivo
Reported bioavailability values for the following compounds.
readout: bioavailability

> print(dat)
                                   compound          readout  meas.value
1              CCCSc1c(C(=O)NC2CCCCC2)cnn1C  bioavailability          0%
2  O=C(O)c1ccc(-n2ncc(C(=O)NC3C4CC5CC(C4)CC3C5)c2SC2CCCC2)cc1 (stereo not given)  bioavailability         57%
3  CCCSc1c(C(=O)N(C)C2CCCCC2)cnn1-c1ccc(C(=O)O)cc1  bioavailability         26%
4  O=C(O)c1ccc(-n2ncc(C(=O)NC3C4CC5CC(C4)CC3C5)c2SC2CCCCC2)cc1 (stereo not given)  bioavailability         82%
5  O=C(O)c1ccc(-n2ncc(C(=O)NC3C4CC5CC(C4)CC3C5)c2C2CC2)cc1 (stereo not given)  bioavailability         51%

----------
# assay info: Intrinsic clearance in rat hepatocytes assessed per 10^6 cells
Reported hepatocyte CLint values for the following molecules.
readout: hepatocyte CLint (µL/min/1e6 cells)

> print(dat)
                                   molecule           readout  inequality.symbol  meas.value
1  CC(C)c1c(C(=O)NC2C3CC4CC(C3)CC2C4)cnn1-c1ccc(C(=O)O)cc1 (centres undefined)  hepatocyte CLint                  <           2
2  CCCSc1c(C(=O)N[C@H]2C3CC4CC2C[C@](OC)(C4)C3)cnn1-c1ccc(C(=O)O)cc1  hepatocyte CLint                  <           2
3  Cc1c(C(=O)NC2C3CC4CC(C3)CC2C4)cnn1-c1ccc(C(=O)O)cc1 (centres undefined)  hepatocyte CLint                  <           3
4  CCSc1c(C(=O)NC2C3CC4CC(C3)CC2C4)cnn1-c1ccc(C(=O)O)cc1 (centres undefined)  hepatocyte CLint                  =           6
5  CCCSc1c(C(=O)NC2CCCCC2)cnn1-c1cccc(C(=O)O)c1  hepatocyte CLint                  =          17
6  CCCSc1c(C(=O)N[C@H]2C3CC4CC2C[C@](OC(F)F)(C4)C3)cnn1-c1ccc(C(=O)O)cc1  hepatocyte CLint                  =          18
7  CCCSc1c(C(=O)NC2CCCCC2)cnn1[C@H]1CC[C@@H](C(=O)O)CC1  hepatocyte CLint                  =          58
8  CCCSc1c(C(=O)NC2CCCCC2)cnn1[C@H]1CC[C@H](C(=O)O)CC1  hepatocyte CLint                  =         7.5
9  O=C(O)c1ccc(-n2ncc(C(=O)NC3C4CC5CC(C4)CC3C5)c2C2CC2)cc1 (centres undefined)  hepatocyte CLint                  =          15

----------
# assay info: Lipophilicity, log D at pH 7.4 by shake flask method
# measurement conditions: buffer
readout: logD

> print(dat)
                                   compound  inequality.symbol  meas.value
1  O=C(O)c1ccc(-n2ncc(C(=O)NC3C4CC5CC(C4)CC3C5)c2SC2CCCCC2)cc1 (centres undefined)                  =           3
2  CSc1c(C(=O)NC2C3CC4CC(C3)CC2C4)cnn1-c1ccc(C(=O)O)cc1 (centres undefined)                  =         1.2
3  CCCSc1c(C(=O)N[C@H]2C3CC4CC2C[C@](OC(F)F)(C4)C3)cnn1-c1ccc(C(=O)O)cc1                  =         1.2
4  CC(C)(C)c1c(C(=O)NC2C3CC4CC(C3)CC2C4)cnn1-c1ccc(C(=O)O)cc1 (centres undefined)                  =           1
5  CCCSc1c(C(=O)NC2C3CC4CC(C3)CC2C4)cnn1-c1ccc(C(=O)O)cc1 (centres undefined)                  =         1.8
6  CCCSc1c(C(=O)N[C@H]2C3CC4CC2C[C@](O)(C4)C3)cnn1-c1ccc(C(=O)O)cc1                  =        -0.4
7  CCSc1c(C(=O)NC2C3CC4CC(C3)CC2C4)cnn1-c1ccc(C(=O)O)cc1 (centres undefined)                  =         1.5
8  CCc1c(C(=O)NC2C3CC4CC(C3)CC2C4)cnn1-c1ccc(C(=O)O)cc1 (centres undefined)                  =         0.9
9  CCCSc1c(C(=O)N[C@H]2C3CC4CC2C[C@](S(C)(=O)=O)(C4)C3)cnn1-c1ccc(C(=O)O)cc1                  <         0.5

----------
# assay info: Half life in rat at 1 and 3 mg/kg, iv
# Type: ADME, organism-based
# Set-up: dose 3 mg/kg, route intravenous
# measurement conditions: in vivo
readout: half-life (min)

> print(dat)
                                   compound  meas.value
1  CC(C)(C)c1c(C(=O)NC2C3CC4CC(C3)CC2C4)cnn1-c1ccc(C(=O)O)cc1 (stereo unspecified)         348
